Assay: Plasma pharmacokinetics in Sprague-Dawley rats after IV dose
Settings: rat, in vivo, 1 mg/kg
Method: The pharmacokinetics were then compared for free drug and membrane entrapped GI147211 liposomes dosed at 5 mg/kg in Sprague Dawley rats. Rats were dosed at 1 mg/kg to compare free GI147211 to passive and actively loaded liposomes. Pharmacokinetic studies were carried out on various liposomal formulations of GI147211 in rats and mice by IV bolus administration. […] In each study the average plasma concentration at each time point was calculated and utilized in the pharmacokinetic analysis. […]
Counter-ions that a name gives are not always drawn.
Test Readout: AUC (ng·h/mL)
Express it in ng·h/mL; write the number only.

Measured AUC, CCC1(O)C(=O)OCc2c1cc1n(c2=O)Cc2c-1nc1cc3c(cc1c2CN1CCN(C)CC1)OCCO3 (stereo in doubt) [GI147211, dihydrochloride] : 136
